Where these numbers come from: ChEMBL document CHEMBL6109054

assay: Prodrug conversion in human plasma assessed as 7(R)-(2-((R,E)-4,4-difluoro-3-hydroxy-4-phenyl)but-1-en-1-yl)-5-oxopyrrolidin-1-yl)heptanoic acid release by measuring half-life
Format: ADME, cell-free
metric.name: t1/2 (h)

CCOC(=O)CCCCCCN1C(=O)CC[C@@H]1/C=C/[C@@H](OC(OP(=O)(O)O)c1ccccc1)C(F)(F)c1ccccc1 (some centres undefined): 45
CCCC(O[C@H](/C=C/[C@H]1CCC(=O)N1CCCCCCC(=O)OCC)C(F)(F)c1ccccc1)OP(=O)(O)O (some centres undefined): 12.7

a. CCOC(=O)CCCCCCN1C(=O)CC[C@@H]1/C=C/[C@@H](OC(C)OP(=O)(O)O)C(F)(F)c1ccccc1 (some centres undefined)
b. O=C(O)CCCCCCN1C(=O)CC[C@@H]1/C=C/[C@@H](OCOP(=O)(O)O)C(F)(F)c1ccccc1
Challenge: Smaller t1/2 value? Options are a and b Output the label that corresponds to your choice.
Response given: b
(b: 1.5 h, a: 10.4 h)
